# Target of assay: T1, KDR-Fc (chimeric fusion of Ig Fc region with human KDR, R&D Systems #357-KD-050) (human, UniProt P35968 20-764)
# T1 construct: Bought; also called KDR Fc fusion; not shown: Ig Fc region of the bought chimera
# T1 sequence (P35968 20-764, change not shown): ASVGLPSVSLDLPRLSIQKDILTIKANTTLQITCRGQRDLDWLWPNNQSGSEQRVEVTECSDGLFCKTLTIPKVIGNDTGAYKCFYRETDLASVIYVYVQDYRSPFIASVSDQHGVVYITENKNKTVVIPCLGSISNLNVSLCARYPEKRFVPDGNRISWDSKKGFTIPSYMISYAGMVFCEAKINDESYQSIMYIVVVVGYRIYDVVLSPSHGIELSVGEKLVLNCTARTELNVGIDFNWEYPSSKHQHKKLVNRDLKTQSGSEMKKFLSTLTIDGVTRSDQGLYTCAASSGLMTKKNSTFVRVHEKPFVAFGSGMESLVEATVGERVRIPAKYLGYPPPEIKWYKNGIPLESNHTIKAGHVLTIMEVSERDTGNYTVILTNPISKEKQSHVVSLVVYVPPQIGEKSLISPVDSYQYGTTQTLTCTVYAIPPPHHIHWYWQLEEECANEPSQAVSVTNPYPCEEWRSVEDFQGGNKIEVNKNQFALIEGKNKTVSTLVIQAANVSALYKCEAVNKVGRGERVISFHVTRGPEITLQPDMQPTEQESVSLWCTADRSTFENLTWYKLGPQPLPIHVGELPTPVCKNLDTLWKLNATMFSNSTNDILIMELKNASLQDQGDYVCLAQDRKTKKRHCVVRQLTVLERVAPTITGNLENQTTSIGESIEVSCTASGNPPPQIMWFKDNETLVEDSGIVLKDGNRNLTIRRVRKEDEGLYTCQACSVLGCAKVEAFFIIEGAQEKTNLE
# Method notes: fluorescence polarisation against KDR-Fc
Positions of bridges follow the written chain, without caps; N, C: chain ends. No end group written: not given here.
Quantity measured: Kd

Determine from records and report Kd for AGDSWCSTEYTYCEMIGT (disulfide 6-13; not fully specified) [P4]
> 2 µM
